Target: T1, hFc-hFasL (fusion protein of human Fc fragment and human FasL extracellular region) (human, UniProt P48023 134-281)
T1 construct: the order here follows the name hFc-hFasL; also called hFc-FasL; hFc-hFasL antigen; not shown: human Fc fragment tag
T1 sequence: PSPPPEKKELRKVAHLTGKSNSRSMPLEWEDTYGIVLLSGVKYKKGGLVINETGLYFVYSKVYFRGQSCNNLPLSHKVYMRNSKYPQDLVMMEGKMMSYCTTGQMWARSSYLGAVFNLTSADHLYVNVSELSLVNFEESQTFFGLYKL
Assay: ELISA, hFc-hFasL coated, antibody titrated, anti-human kappa-HRP (protocol of Example 3.2)
Measured EC50, listed per entry for reference.
observed_property: EC50

binder: humFL-M88-9 (antibody, human IgG4, V domains shown, Humanized FL-M88) VH: QVQLVQSGAEVKKPGASVKVSCKGSGYTFTDYTIHWVRQAPGQGLEWMGVISTYQGDASYNQKFKGRATMTVDKSTSTAYMELSSLRSEDTAVYYCARFPDWDYAMDYWGQGTLVTVSS VL: EIVMTQSPATLSVSPGERATLSCKASQSVDYDGDSYMNWYQQKPGQAPRLLIYAASNLESGIPARFSGSGSGTEFTLTISSLQSEDFAVYYCQHSRELPYTFGQGTKLEIK
result: 284 pM

binder: humFL-M88-1 (antibody, human IgG4, V domains shown, Humanized FL-M88) VH: QVQLVQSGAEVKKPGASVKVSCKGSGYTFTDYTIHWVRQAPGQGLEWIGVISTYQGDASYNQKFKGRATMTVDKSTSTAYMELSSLRSEDTAVYYCARFPDWDYAMDYWGQGTLVTVSS VL: EIVMTQSPATLSVSPGERATLSCKASQSVDYDGDSYMNWYQQKPGQPPRLLIYAASNLESGIPARFSGSGSGTEFTLTISSLQSEDFAVYYCQHSRELPYTFGQGTKLEIK
result: 265 pM

binder: humFL-M88-12 (antibody, human IgG4, V domains shown, Humanized FL-M88) VH: QVQLVQSGAEVKKPGASVKVSCKASGYTFTDYTIHWVRQAPGQGLEWMGVISTYQGDASYNQKFKGRVTMTVDTSTSTVYMELSSLRSEDTAVYYCARFPDWDYAMDYWGQGTLVTVSS VL: EIVMTQSPATLSVSPGERATLSCKASQSVDYDGDSYMNWYQQKPGQAPRLLIYAASNLESGIPARFSGSGSGTEFTLTISSLQSEDFAVYYCQHSRELPYTFGQGTKLEIK
result: 276 pM

binder: humFL-M88-3 (antibody, human IgG4, V domains shown, Humanized FL-M88) VH: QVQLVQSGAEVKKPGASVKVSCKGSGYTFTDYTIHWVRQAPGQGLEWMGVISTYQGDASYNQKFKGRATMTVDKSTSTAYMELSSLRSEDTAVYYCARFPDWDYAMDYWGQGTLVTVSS VL: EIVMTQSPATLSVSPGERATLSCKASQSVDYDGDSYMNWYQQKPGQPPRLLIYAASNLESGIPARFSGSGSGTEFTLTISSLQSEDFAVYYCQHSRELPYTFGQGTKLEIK
result: 273 pM
